Value source: ChEMBL document CHEMBL4411320

- Tested on: Vero
- assay.explanation: Cytotoxicity against African green monkey Vero cells after 3 days by hemocytometric method
- Type: cell-based
- experimental.conditions: chlorocebus sabaeus, vero, 72 h
Provide the recorded CC50 for the entries that follow.

The compound listed as Nc1ncnc2c1ncn2[C@@H]1O[C@H](CO)[C@@H](O)[C@@]1(F)Br shows CC50 equal to > 100 µM

Measured CC50 of Nc1ccn([C@@H]2O[C@H](CO)[C@@H](O)[C@@]2(F)Cl)c(=O)n1 : 63 µM

The compound listed as Nc1nc2c(ncn2[C@@H]2O[C@H](CO)[C@@H](O)[C@@]2(F)Cl)c(=O)[nH]1 shows CC50 equal to > 100 µM

For record O=c1ccn([C@@H]2O[C@H](CO)[C@@H](O)[C@@]2(F)Br)c(=O)[nH]1 the listed CC50 is > 100 µM

# CC50 of Nc1ncnc2c1ncn2[C@@H]1O[C@H](CO)[C@@H](O)[C@@]1(F)Cl = > 100 µM

Value of CC50 reported for the compound CC(C)OC(=O)[C@H](C)NP(=O)(OC[C@H]1O[C@@H](n2cnc3c(=O)[nH]c(N)nc32)[C@](F)(Cl)[C@@H]1O)Oc1ccccc1 (mixture of isomers) is > 100 µM

The measured CC50 associated with Nc1nc2c(ncn2[C@@H]2O[C@H](CO)[C@@H](O)[C@@]2(F)Br)c(=O)[nH]1 reads > 100 µM

Just so you know, measured CC50 for CC(C)OC(=O)[C@H](C)NP(=O)(OC[C@H]1O[C@@H](n2ccc(=O)[nH]c2=O)[C@](F)(Cl)[C@@H]1O)Oc1ccccc1 (mixture of isomers) came out at > 100 µM

The compound listed as CC(C)OC(=O)[C@H](C)N[P@](=O)(OC[C@H]1O[C@@H](n2cnc3c(=O)[nH]c(N)nc32)[C@](F)(Br)[C@@H]1O)Oc1ccccc1 has a reported CC50 of > 100 µM

// CC50 value for CC(C)OC(=O)[C@H](C)NP(=O)(OC[C@H]1O[C@@H](n2ccc(N)nc2=O)[C@](F)(Cl)[C@@H]1O)Oc1ccccc1 (mixture of isomers) : > 100 µM

For CC(C)OC(=O)[C@H](C)NP(=O)(OC[C@H]1O[C@@H](n2cnc3c(N)ncnc32)[C@](F)(Cl)[C@@H]1O)Oc1ccccc1 (mixture of isomers) the compound record lists CC50 as > 100 µM

Noted for CC(C)OC(=O)[C@H](C)NP(=O)(OC[C@H]1O[C@@H](n2cnc3c(N)ncnc32)[C@](F)(Br)[C@@H]1O)Oc1ccccc1 (mixture of isomers) : its CC50 reads 71 µM

For Nc1ccn([C@@H]2O[C@H](CO)[C@@H](O)[C@@]2(F)Br)c(=O)n1 the compound record lists CC50 as 2.9 µM

// CC(C)OC(=O)[C@H](C)NP(=O)(OC[C@H]1O[C@@H](n2ccc(N)nc2=O)[C@](F)(Br)[C@@H]1O)Oc1ccccc1 (mixture of isomers) : CC50 value = > 100 µM

response.value for O=c1ccn([C@@H]2O[C@H](CO)[C@@H](O)[C@@]2(F)Cl)c(=O)[nH]1 (field: CC50) = > 100 µM
